Target: Recombinant human cathepsin A (Homo sapiens)
Construct: Recombinant human cathepsin A (residues 29-480, with a C-terminal 10-His tag); 10-His (C)
Sequence (P10619 29-326 limits assumed): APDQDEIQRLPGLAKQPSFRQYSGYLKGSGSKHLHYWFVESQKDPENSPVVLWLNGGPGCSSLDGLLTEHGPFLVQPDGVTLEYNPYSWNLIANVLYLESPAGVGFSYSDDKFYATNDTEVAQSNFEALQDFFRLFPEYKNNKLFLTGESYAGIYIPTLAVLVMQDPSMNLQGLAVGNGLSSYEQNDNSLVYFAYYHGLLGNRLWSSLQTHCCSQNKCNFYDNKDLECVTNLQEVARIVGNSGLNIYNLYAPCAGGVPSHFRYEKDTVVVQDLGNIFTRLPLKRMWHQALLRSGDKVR
Sequence (P10619 327-480 limits assumed): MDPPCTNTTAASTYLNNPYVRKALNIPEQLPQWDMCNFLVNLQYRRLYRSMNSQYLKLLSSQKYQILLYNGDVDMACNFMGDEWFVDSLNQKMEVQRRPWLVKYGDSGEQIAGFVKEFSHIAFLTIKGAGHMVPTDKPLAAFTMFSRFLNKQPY
Assay: Cathepsin A inhibitory activity
Conditions: activated recombinant human cathepsin A 833 ng/ml, Bodipy FL-labeled bradykinin substrate 2 μM, pH 5.5, room temperature
pIC50: −log10 of the molar value.
Decision: pIC50 >= 6 yields 1.0, all other cases yield 0.0.

Use the examples below as a reference point.
O=C(O)CC(Cc1ccccc1)NC(=O)c1csc(-c2ccc(Cl)cc2)n1 (centres unmarked) [Example 127] ... 0.0
O=C(O)C[C@H](NC(=O)c1csc(-c2ccccc2Cl)n1)c1ccc(Cl)cc1Cl [Example 75] ... 1.0
O=C(O)C[C@H](NC(=O)c1csc(-c2ccccc2)n1)c1ccc(Cl)cc1Cl [Example 22] ... 1.0
O=C(O)C[C@H](NC(=O)c1csc(-c2ccc(C(F)(F)F)cc2)n1)c1ccccc1Cl [Example 33] ... 0.0
Cc1ccccc1[C@H](CC(=O)O)NC(=O)c1csc(-c2ccccc2F)n1 [Example 87] ... 1.0

# input Assess whether reported pIC50 for Cc1ccccc1-c1nc(C(=O)N[C@@H](CC(=O)O)c2ccccc2)cs1 [Example 113] sits at 6 or higher.
# output 1.0

# input // inclusive: pIC50 at least 6? input: Cc1ccccc1-c1nc(C(=O)NCC(C(=O)O)c2ccccc2)cs1 (centres unmarked) [Example 114]
# output 0.0
